Experiment: yeast display, Sf9 membrane polyspecificity reagent, FACS + sequencing; frameworks hold sequencing errors
ENDPOINT NAME: polyreactivity (PSR sort gate)

// below: answered sequences
QVQLVESGGGLVQAGGSVRLSCAASGSTIPPKVMGWYREAPGKEREWVAAISWGGSSTYYADSVKGRFPISRDHAKNTVFVQKNCLQREETAVYYCNAEYRSPVYWWYYEYDYWGQGTQVTVSA: high polyreactivity
QVQLVESGGGLVQAGGSLRLSCAASGRIFRGYAMGWYRQAPGKERELVAAISGGGGSTYYADSVKGRFTISRDNAKNTVYLQMNSLKPEDTAVYYCNALRIRGSKVFEGDYWGQGTQVTVSS: high polyreactivity
QVQLVESGGGLVQAGGSLRLSCAASGSTFDYYAMGWYRQAPGKERELVAAISSSGSRTHYADSVKGRFTISRDNAKNTVYLQMNSLKPEDTAVYYCATYTKYWRYPYDYWGQGTQVTVSS: high polyreactivity
QDQLVESGGGLVQAGGSLRLSCAASGRTFSRYALGWYRQAPGKERELVAAISWSGGTTHYADSVKGRFTISRDNAKNTVYLLMNRLKPEDTAFYYCNKLRQIEFWGQGTQVTVSS: high polyreactivity
QVQLVESGGGLVQAGGSLRLSCAASGFTFYSNAMGWYRQAPGKERELVAAITSSGGSTYYADSVKGRFTISRDNAKNTVYLQMNSLKPEDTAVDYCNVRVGYRRYGYWGQGTQVTVSS: high polyreactivity

# per-item lookup of polyreactivity (PSR sort gate); items listed below
1. QVQLVESGGGLVQAGGSLSLSCAASGNIFWGNAMGWYRQAPGKERELVAAITSIDSSTYYADSVKGRFTISRDNAKNTVYLQMNSLKPEDTAVYYCAADGDWYGYIWQSDDGYDSWGQGTQVTVSS
2. QVQLVESGGGLVQAGGSLRLSCAASGRILWSYPMGWYRQAPGKEREFVATINRSGGNTHYADSVKGRFTISRDNAKNTVYLQMYSLKPEDTAVYYCAALNLVPYGYQGLRYYYWGQGTQVTVSS
3. QVQLVESGGGLVQAGGSLRLSCAASGLIFYIYAMGRYREAPGKERELVAAISSSGGSTFYADSVKGRFTISRDNAKNTVYLQMNSLKPEDTAVYYCAAYYGGGYGFHRDYWGQGTQVTVSS
4. QVQLVESGGGLVQAGGSLRLSCAATGRTFTGNVMGWYRQAPGKERELVAAISRSGTSTYYADSVKGRFTISRDNAKNTVYLQMNSLKPEDTAVYYCAARRTAGYRSGEYDYWGQGTQVTVSS
5. QVQLVDSGGGLVQAGGSLRLICAASGRSFYNYAMGRYSEAPGKERELVAAIAGSGGSTYYADSEKGRVTISRDNAKNTGYLQMNSLKPEDTAVDYCSTSGPQYYSRNFDDWGQGTQVTVSS
6. QVQLVESGGGLVQAGGSLRLSCAASGSTFTKYTMGWYRQAPGKERELVAAITSSGGSTYYADSVKGRFTISRDNAKNTVYLQMNSLKPEDTAVFYCAAPALYYYYYYGYDYWGQGTQVTVSS

Result:
low polyreactivity
high polyreactivity
high polyreactivity
high polyreactivity
low polyreactivity
high polyreactivity

----------
Assay: yeast display, Sf9 membrane polyspecificity reagent, FACS + sequencing; frameworks hold sequencing errors
ENDPOINT NAME: polyreactivity (PSR sort gate)

QVQLVESGGGLVQAGGSLRLSCASSGLIIDYYAMGWYRQAPGKERELVAAITSSSGITYYADSVKGRFTISRDNAKNTVYLQMNSLKPEDNAVYYCAAYTTYKLYEYAYWGQGTQVTVSS: low polyreactivity
QVQLVESGGGLVQAGGSLRISCAASGYTFYSNAMGWYRQAPGKERELVASIRSRGRSTYYADSVKGRFTISRDNAKYSVYLQMNSLNPEDTAVYYCAALRNKPAVYAYDYWGQGTQVTVSS: low polyreactivity

----------
Test: yeast display, Sf9 membrane polyspecificity reagent, FACS + sequencing; frameworks hold sequencing errors
ENDPOINT NAME: polyreactivity (PSR sort gate)

// below: answered sequences
QVQLVESGGGLVQAGGSIRLSCAASGRTFARNAMGWYRKAPGKERELVAAISSSGGSTYYADSVKGRFTISRDNAKNTVYLQMNSLKPEDTAVYYCARYSSFTYDYWGQGTQVTVSS: high polyreactivity
QVQLVESGGGLVQAGGSLRLSCAASGSIFGYNAMGWYRQAPGKEREFVAAISWSGGRTYYADSVKGRFTISRDNAKYTVYLQMNSLKPEDTAVYYCAAPSRPAPRFDYWGQGTQVTVSS: low polyreactivity
QVQLVESGGVLVQAGGSLRLSCAASGSIFEVNSMGWYRQAPGKERELVDTITYSGGSTYYADSVKGRFTLSRDNAKNNVYLQMNSLKPEDTAVYYCATDYVDWELYIYDYWGQGTQVTVSS: low polyreactivity
QVQLVESGGGLVQAGGSLSISCAASGRTFPEYGMGWYRQAPGKDREFVAAISTRGGSTYYANSVKGRFTISGDNAKNTVYLQMNSLKPEDTAVYYCAKVYDRSGGDYWGQGTQVTVSS: low polyreactivity

Let us examine a further case.
Problem: polyreactivity (PSR sort gate) lookup needed for `QVQLVESGGGLVQAGGSLRLSCAASGYTFYYYAMGWYRQAPGKEREFVAAISWRGGRTYYADSVKGRFTISRDNAKNTVYLQMNSLKPEDTAVYYCAARRDGWTFWKYDYWGQGTQVTVSS` , thanks.
Result: high polyreactivity

----------
Assay: yeast display, Sf9 membrane polyspecificity reagent, FACS + sequencing; frameworks hold sequencing errors
ENDPOINT NAME: polyreactivity (PSR sort gate)

// below: answered sequences
QVQLVESGGGLDQAGGSLRLSSAASVSIFRYNTMGWYRPAPGKEREFVDSIRIGGSTYYADSVKGRFTISRDNAKNTVYLQMNSLKPEDTAVYYCAVRPYRSAGGSVTRGAYYYWGQGTQVTVSS: high polyreactivity
QVQLVESGGGLVQAGGSLRLSCAASGSIFGKYTMGWYRQAPGKERELVAGITYRAGSTYYADSVKGRFTISRDNAKNTVYLQMNSLKPEDTAVYYCAARFYFRWYYYGSYANYWGQGTQVTVSS: high polyreactivity
QVQLVESGGGLVQAGGSLRLSCAASGSIFDPYAMGWYRQAPGKERELVAVINDGGRTTYADSVKGRFTISRDNAKNTVYLQMNSLKPEDTAVYYCAATYYFSRWDLFGYWGQGTQVTVSS: low polyreactivity
QVQLQESGGGLVQAGGSLRLSCAVSGTIFFPLDMGWYRQAPGREREYVAAIAEGTSTYYADSVKGRFTISRDNAKNTVYPQMYSLKPEDTAVYYCAAYRSTPQQFHYWGQGTQVTVSS: high polyreactivity
QVQLVESGGGLVQAGGSLRLSCAASGNIFAWYAMGWYRQAPGKERELVADISSRGGSTYYADSVKGRFTISRDNAKNTVYLQMNSLKPEDTAVYYCAAVWYWTQDYDYWGRGTQVTVSS: low polyreactivity

# per-item lookup of polyreactivity (PSR sort gate); items listed below
1. QVQLVESGGGLVQAGGSLRLSCAASGIIFRYYAMGWYRQAPGKEREFVAAITWRGTSTYYADSVKGRFTISRDNAKNTVYLQMNSLKPEDTAVYYCATATAFPYYGLDYWGQGNQVTVSS
2. QVQLVESGGGLVQAGGSLRLSCAASGRIISINAMVWYRQAPGKERELVAAINSGGSTHYADSVKGRFTISRDNAKNTVYLQMNSLKPEDTAVYYCAARKTVSYFRVRTFDYWGQGTQVTVSS
3. QVQLVESGGGLVQAGGSLRLSCAASGSIFGENAMGWDRQAPGKERELVAAITSGGSTDYADSVKGRFTISRDNAKNTVYLQMNSLKPEDTAVYYCAASGRVGPGYWYDSWGQGTQVTVSS
4. QVQLVESGGGLVQAGGSLRLSCAASGFIFPRYAMGWYRQAPGKERELVAAISYSGGSTYYADSVKGRFTISRDNAKNTVYLQMNSLKPEDTAVYYCNTAPWWRTSSDYEYWGQGTQVTVSS
5. QVQLGESGGGLVQAGGSLRLSCAASGFTFHLYAMGWYRQAPGKERELVAAISQSGDSTYYADSVKGRFTISRDNAKNTVYLQMNSLKPDDTAVYYFNADNDGVVWSYPFDFDYWGQGTQVTVSS

Result:
1: high polyreactivity; 2: low polyreactivity; 3: low polyreactivity; 4: high polyreactivity; 5: low polyreactivity

Problem: polyreactivity (PSR sort gate) lookup needed for `QVQLVESGGGLVQAGGSLRLSCAASGSTFGINAMGWSRQAPGKERELVAAISWRGGSTYYADSVKGRFTISRDNSKNTVYLQMNSLKPEDTAVYYCAADTFYWVGHYYVETYDYWGQGTQVTVSS` , thanks.
Result: high polyreactivity

----------
Assay: yeast display, Sf9 membrane polyspecificity reagent, FACS + sequencing; frameworks hold sequencing errors
ENDPOINT NAME: polyreactivity (PSR sort gate)

// below: answered sequences
QVQLVESGGGLVQEGGSLRLSCAASGRISTYYTMGWYRQAPGKERELVAAISWSGTSTYYADSVKGRFTISRDNAKNTVYLQMNSLKPEDTAVYYCNARWRYPLDSVTDDYWGQGTQVTVSS: high polyreactivity
QVQLVESGGGLVHAGGSLRLSFAASGRTFTLNAMGWYRQAPGKEREFVAAISNSGVRTYYADSVKGRFTISRDNAKNTVYLQMNSLTPEDTAVYYCDGTYQVGDSIDDYWGQGTQVTVSS: low polyreactivity
QVQLVESGGGLVQAGGSLRLSCADSGRTFNYYDMGWYRQAPGKERELVASITGSGGNTYYADSVKGRFTFSRDNAKNTVYLQMNSLKPEDTAVYYCAKAIGNFLYYYWLYHSSYEYDYWGQGTQVTVSS: low polyreactivity
QVQLVESGGGLVQAGGSLRVSCAASGRTFWTNAMGWYRQAPGKEREILAAISWRGASTFYADSVKGRFTISRDNAKNTVYLQMNSLKPEDTAVYYCAAQSRTRSFYGKYDSWGQGTQVTVSS: low polyreactivity

# per-item lookup of polyreactivity (PSR sort gate); items listed below
1. QVQLVESGGGLVQAGGRLRLSCAASGSISWVYAMGWYRQAPGTERELVADITDSGDSTYYADSVKGRFTISRDNAKNTVYLQMHSLKPEDTAVYYSAAPGSRHYYIYWPYNYWGQGTQVTVSS
2. QVQLVESGGGLVQAGGSLRLSSAASGRTFRGNAMGWYSQAPGKERELVAAIRWNGGSTYYADSVKGRFTISRDNAKNTVYLQMNSLKPEDTAVYYCAVSYWYSRYDYWGQGTQVTVSS
3. QVQLVESGGGLVQAGGSLRLSCAASGSTFNYYAMGWYRPAPGKERELVAAISWSGGSTYYADSVKGRFTISRDNAKNTVYLQMNSLKPEDTAVYYCAAYPARPWARGDRRRIRFWGQGTQVTVSS
4. QVQLVESGGGLVQAGGSLRLSCAASGSIFGTYAMGWYRQAPGKERELVAAISRGGRTYYADSVKGRFTISRDNAKNTVYLQMNSLKPEDTAVYYCAARTVGLRGYYYWGQGTQVTVSS

Result:
1. low polyreactivity
2. high polyreactivity
3. high polyreactivity
4. high polyreactivity

# per-item lookup of polyreactivity (PSR sort gate); items listed below
1. QVQLVESGGGLVQAGGSLRLSCAASGRIVWGYAMGWYTPAPGKERDLVATITRGGSTNYADSVKGRFTISRDNAKNTVYLQMNSLKPEDTAVYYCARDWGKSEYDYWGQGTQVTVSS
2. QVQLVESGGGLVQAGGSLRLSCAASGSTFYHNVKGWYRQAPWKERELVASIDTGDSTNYADTVKGRFSISRDNAKKTVYLQMNSLKPEDTAVYYCNADSYPALNKRGYEYWGQGTQVTVSS

Result:
1: high polyreactivity; 2: low polyreactivity

Problem: polyreactivity (PSR sort gate) lookup needed for `QVQLVESGGGLVQAGGSLRLSCAASGRIFGCYAMGWYRQAPGKERELVAAISSGGNTKYADSVKGRFTISRDNAKNTVYLQMNSLKPEDTAVYYCAAKFAQPDYRYDYWGQGTQVTVSS` , thanks.
Result: high polyreactivity

src = the nanobody polyreactivity screen of Harvey et al. (2022)
